# assay.system: T1, Wild-type Sgf29 (SAGA-associated Factor 29) tandem tudor domain, residues 115-293 (human, UniProt Q96ES7 115-293)
# T1 construct: also called WT Sgf29; WT; source: E. coli Rosetta BL21 DE3 PlysS, purified (Ni-NTA, TEV cleavage, SEC Superdex 75)
# T1 sequence (looked up): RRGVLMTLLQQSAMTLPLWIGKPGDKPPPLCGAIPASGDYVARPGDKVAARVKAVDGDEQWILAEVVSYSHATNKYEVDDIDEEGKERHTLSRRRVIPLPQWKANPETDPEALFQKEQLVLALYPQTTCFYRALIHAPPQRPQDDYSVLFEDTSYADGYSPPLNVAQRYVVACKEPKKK
# experimental.details: ITC; peptide (generally 1.2 mM) titrated to protein (100 uM); for variants of low affinity 2.4 mM peptide to 200 uM protein; 25 mM TRIS pH 8.0, 50 mM NaCl, 1 mM DTT; one-site model
# condition.parameters: both partners purified
No end group written: not given here. Me3 = trimethyl (on lysine, trimethyllysine)
readout.kind: Kd (µM)
Answers are plain numbers, in µM.

Which Kd is reported for this binder? ARTK(Me3)QTARKS-OH (histone H3 N-terminal tail, 10-mer, K4 trimethylated; also called native 10-mer peptide; source: synthetic peptide (manual Fmoc solid-phase synthesis, preparative HPLC)) [10-mer histone 3 peptide H3K4me3 (ARTKme3QTARKS)]
3.1
